- Test system: KRAS patient-derived spheroids with HUVEC/MSC, viability;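 further: spheroids exposed to agents for 7 days; 100% = DMSO vehicle control viability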
- testMethodNotes: Anticancer human tumor 323965-272-R-J2-PDC patient-derived pancreatic carcinoma cell line growth inhibition [KRAS2]
- conditionsUsed: second compound 1 µM; first compound 0.0316 µM; active compounds read low
quantityMeasured: viability, T/C (%)
Hi! Could you send only the number? It should be in %, unit omitted.

GET viability, T/C | system: KRAS patient-derived spheroids with HUVEC/MSC, viability | item: CC(=O)Nc1cccc(-n2c(=O)n(C3CC3)c(=O)c3c(Nc4ccc(I)cc4F)n(C)c(=O)c(C)c32)c1 + CNCc1ccccc1-c1csc(C(C)Nc2nc(C)nc3cc(OC)c(OC)cc23)c1 21.3

GET viability, T/C | system: KRAS patient-derived spheroids with HUVEC/MSC, viability | item: Cn1nccc1Nc1nccc(-c2cc3c(s2)C(C)(C)N(CCN2CCOCC2)C3=O)n1 + COc1cc2nc(C)nc(NC(C)c3cc(N)cc(C(F)(F)F)c3)c2cc1OC1CCOC1 65.9

GET viability, T/C | system: KRAS patient-derived spheroids with HUVEC/MSC, viability | item: CC(C)NCC(C(=O)N1CCN(c2ncnc3c2C(C)CC3O)CC1)c1ccc(Cl)cc1 (stereo not given) + CNCc1ccccc1-c1csc(C(C)Nc2nc(C)nc3cc(OC)c(OC)cc23)c1 94.9

GET viability, T/C | system: KRAS patient-derived spheroids with HUVEC/MSC, viability | item: CC1COCCN1c1cc(-c2ccnn2C)c2ccnc(-c3ccn[nH]3)c2n1 (stereo not given) + C=CC(=O)N1CCN(c2nc(=O)n(-c3c(C)ccnc3C(C)C)c3nc(-c4c(O)cccc4F)c(F)cc23)C(C)C1 28

GET viability, T/C | system: KRAS patient-derived spheroids with HUVEC/MSC, viability | item: CC1(C)CCC(CN2CCN(c3ccc(C(=O)NS(=O)(=O)c4ccc(NCC5CCOCC5)c([N+](=O)[O-])c4)c(Oc4cnc5[nH]ccc5c4)c3)CC2)=C(c2ccc(Cl)cc2)C1 + CC1OCC2(CCN(c3cnc(Sc4ccnc(N)c4Cl)c(N)n3)CC2)C1N 43.9
